target-or-system: rat adrenergic α1A receptor (Rattus norvegicus)
Construct: obtained from Wistar Rat submaxillary glands; from tissue; host or cells: Wistar rat submaxillary glands
Sequence (P43140 whole entry): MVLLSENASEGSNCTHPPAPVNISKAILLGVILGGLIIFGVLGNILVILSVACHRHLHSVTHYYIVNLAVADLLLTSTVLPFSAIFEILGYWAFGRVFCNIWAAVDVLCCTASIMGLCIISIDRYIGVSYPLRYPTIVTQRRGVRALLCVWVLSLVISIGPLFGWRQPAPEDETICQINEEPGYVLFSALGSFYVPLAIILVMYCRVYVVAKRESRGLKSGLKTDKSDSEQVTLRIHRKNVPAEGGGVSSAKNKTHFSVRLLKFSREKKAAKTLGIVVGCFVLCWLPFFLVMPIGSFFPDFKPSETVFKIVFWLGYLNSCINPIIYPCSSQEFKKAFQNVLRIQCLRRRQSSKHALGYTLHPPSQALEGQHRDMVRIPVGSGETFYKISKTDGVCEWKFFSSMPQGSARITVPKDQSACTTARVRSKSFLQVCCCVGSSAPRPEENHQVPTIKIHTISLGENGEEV
test-summary: Adrenergic α1A radioligand binding ([3H]Prozosin)
settings: compound at 1 μM; Wistar Rat submaxillary glands; read-out: Adrenergic (1 μM) α1A, percent inhibition of specific binding
Description: To evaluate in radioligand binding assays the activity of compounds of the invention, rat adrenergic α1A receptor obtained from Wistar Rat submaxillary glands (Michel, A. D. et al., Br. J. Pharmacol. 98:883, 1989) in a modified Tris-HCl buffer (50 mM Tris-HCl buffer, pH 7.4, 0.5 mM EDTA) was used. […] Receptor proteins were filtered and washed, the filters were then counted to determine [^3H]Prozosin specifically bound. […]
Hi, to clarify the labels: t covers inhibition at 1 µM from 10% upward, f covers anything below 10%.

molecule	category
CCOC(=O)CCn1c2c(c3cc(C)ccc31)CN(C)CC2	t

Consider now this further molecule.
Incoming: Does the molecule CCOC(=O)CCCn1c2c(c3cc(C)ccc31)CN(C)CC2 have recorded inhibition at 1 µM that is 10% or more?
Outgoing: t
